- Test system: MCF10A
- Assay Remarks: percent viability (nuclei count relative to siNT); higher = more viable cells
- Test Settings: 20 nM; 72 h
Classes (percent viability): Low: < 40%; Medium: ≥ 40% and < 70%; High: ≥ 70%

UGUGAUAUCAUGGUUCCUGGGA [hsa-miR-3689e]    Low
CAGGGCUCAGGGAUUGGAUGGAGG [hsa-miR-5088-5p]    High
UAAAUUUCACCUUUCUGAGAAGG [hsa-miR-513a-3p]    Medium
AAAAGUACUUGCGGAUUUUGCU [hsa-miR-548k]    High
AGUGCCUGAGGGAGUAAGAGCCC [hsa-miR-550a-5p]    Medium
CUCCCACAUGCAGGGUUUGCA [hsa-miR-188-3p]    Medium
UUGAAUUCUUGGCCUUAAGUGAU [hsa-miR-4452]    Medium
UAUGGCACUGGUAGAAUUCACU [hsa-miR-183-5p]    Low
AAAGGCAUAAAACCAAGACA [hsa-miR-3910]    Low
UCCCUCGCCUUCUCACCCUCAG [hsa-miR-6803-3p]    Medium
CUAGUGCUCUCCGUUACAAGUA [hsa-miR-4473]    Low
UGAGGGGCCUCAGACCGAGCUUUU [hsa-miR-3184-5p]    Low
UGCACGGCACUGGGGACACGU [hsa-miR-3177-3p]    Low
AGAAGUGGCUAAUAAUAUUGA [hsa-miR-4795-5p]    Low
UAAUUGCUUCCAUGUUU [hsa-miR-302f]    Medium
CCAGUGGGGCUGCUGUUAUCUG [hsa-miR-194-3p]    High
CUGUAUGCCCUCACCGCUCA [hsa-miR-675-3p]    Low
GGGGGGUGUGGAGCCAGGGGGC [hsa-miR-6752-5p]    High
CCCUGCUGCCUUCACCUGCCAG [hsa-miR-6893-3p]    Medium
UCUAGAGGAAGCACUUUCUGUUU [hsa-miR-520g-5p]    Medium
CCUCCUGAUGAUUCUUCUUC [hsa-miR-3653-5p]    High
GUGCCACCUUAACUGCAGCCAAU [hsa-miR-4715-3p]    Medium
GCUCAUCCCCAUCUCCUUUCAG [hsa-miR-6870-3p]    High
UAACAUAAUAGUGUGGAUUGA [hsa-miR-4803]    High
ACAACAGUGACUUGCUCUCCAA [hsa-miR-4709-5p]    High
UGGGGAGCUGAGGCUCUGGGGGUG [hsa-miR-939-5p]    High
CAGGAAGGAGACAGGCAGUUCA [hsa-miR-6876-5p]    Low
UUGCAUGUCAGAUUGUAAUUCCC [hsa-miR-4666b]    Medium
CUGUGCGUGUGACAGCGGCUGA [hsa-miR-210]    Medium
UAGAGUCUGGCUGAUAUGGUUU [hsa-miR-5007-5p]    Medium
GUGGACCAGGAUGGCAAGGGCU [hsa-miR-4776-5p]    High
GCAGAGAACAAAGGACUCAGU [hsa-miR-3919]    Low

Attribution: the supplement of paper PMC10899765
